B1: RAB40A (parent)
chain: NWLGRPSKVLSLQDLCCRTIVSCT

- Variants of: B1
- Protocol summary: protein stability index of a GFP-peptide fusion (GPS, HEK-293T) (PSI 1-6); higher = more stable;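 also: lentivirally expressed fusions sorted by FACS into six bins by GFP to DsRed ratio, PSI derived from sequencing read proportions per bin multiplied by bin number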
- Measurement setup: c terminus: a fixed tail appended
Outcome measure: protein stability index

> print(dat)
   variant.description          outcome.measure  observed
1                 L12E  protein stability index       1.8
2                  W2N  protein stability index      3.23
3                  V9L  protein stability index      2.12
4                 L15W  protein stability index       2.1
5                  R5H  protein stability index      2.25
6                 T19A  protein stability index      2.52
7                 R18A  protein stability index      2.03
8                  K8Y  protein stability index      1.96
9                  R5G  protein stability index      2.35
